experimental target: HsMBD2 MBD (Homo sapiens, UniProt Q9UBB5 150-214)
Sequence (Q9UBB5 150-214): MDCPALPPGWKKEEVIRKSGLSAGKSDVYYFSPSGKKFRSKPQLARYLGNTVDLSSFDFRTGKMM
protocol text: SPR; steady state; Rmax 6.0; SPR: 10 mM HEPES pH 7.4, 50 mM NaCl, 3 mM MgCl2, 0.1 mM EDTA, 1 mM DTT, 0.05% polysorbate 20, temperature not stated; NMR conditions not in material
conditions: protein: recombinant; blunt
observation type: Kd (µM)
Hi! Could you send only the number? It should be in µM, unit omitted.

Quick one: Kd for CpG(x3) 17 bp, 3'-biotin (dsDNA) DNA 1: GAGGCGCTCGGCGGCAG DNA 2: CTGCCGCCGAGCGCCTC ?
81.7
